experiment: Clearance in Han Wistar rat blood at 2 or 4 umol/kg, iv or 10 umol/kg, po; format: ADME, organism-based; conditions: whole blood
QUANTITY_MEASURED: clearance
Give the figure together with its unit, number first.

Looking up CC(=O)N1CCC(n2cc(Nc3ncc(Cl)c(-c4cnn5ccccc45)n3)c(C)n2)CC1 , I see its clearance listed as 62 mL/min/kg

* * *

assay: Octanol-buffer partition co-efficient, log D of the compound at pH 7.4 by shake-flask method; assay type: physicochemical
QUANTITY_MEASURED: logD
# respond with the number and nothing more

Looking up CC(=O)N1CCC(n2cc(Nc3ncc(Cl)c(-c4cnc5ccccn45)n3)cn2)CC1 , I see its logD listed as 3.1

Looking up CCc1c(Nc2ncc(Cl)c(-c3cnn4ccccc34)n2)cnn1C1CCN(C(C)=O)CC1 , I see its logD listed as 3.3

Looking up CNC(=O)CN1CCC(n2nc(C)c(Nc3ncc(Cl)c(-c4cnn5ccccc45)n3)c2C)CC1 , I see its logD listed as 3.2

Looking up COc1nn(C2CCN(C(C)=O)CC2)cc1Nc1ncc(Cl)c(-c2cnn3ccccc23)n1 , I see its logD listed as 3.3

Looking up CC(=O)N1CCC(n2ncc(Nc3ncc(Cl)c(-c4cnn5ccccc45)n3)c2C)CC1 , I see its logD listed as 3.2

Looking up COc1cc(N2CCN(C(C)=O)CC2)ccc1Nc1ncc(Cl)c(-c2cnn3ccccc23)n1 , I see its logD listed as 3.7

Looking up CC(=O)N1CCC(n2ncc(Nc3ncc(Cl)c(-c4cnc5ccccn45)n3)c2C)CC1 , I see its logD listed as 2.7

Looking up Cc1nn(C2CCNCC2)cc1Nc1ncc(Cl)c(-c2cnc3ccccn23)n1 , I see its logD listed as 1.1

Looking up COc1nn(C2CCN(C(C)=O)CC2)cc1Nc1ncc(Cl)c(-c2cnc3ccccn23)n1 , I see its logD listed as 2.9

* * *

test: Cmax in nude mouse at 50 mg/kg, po; format: ADME, organism-based; parameters: dose 50 mg/kg, route oral; details: in vivo
QUANTITY_MEASURED: Cmax

Looking up Cc1nn(C2CCN(C(=O)[C@@H](C)O)CC2)c(C)c1Nc1ncc(Cl)c(-c2cnn3ccccc23)n1 , I see its Cmax listed as 12 µM

* * *

assay: Octanol-buffer partition co-efficient, log D of the compound at pH 7.4 by shake-flask method; assay type: physicochemical
Exercise: state measured logD for each of the compounds provided.
# respond with the number and nothing more

Looking up Cc1nn(C2CCN(C(=O)[C@H](C)O)CC2)c(C)c1Nc1ncc(Cl)c(-c2cnn3ccccc23)n1 , I see its logD listed as 2.8

Looking up Cc1nn(C2CCN(C(=O)[C@H](C)N)CC2)c(C)c1Nc1ncc(Cl)c(-c2cnn3ccccc23)n1 , I see its logD listed as 1.7

Looking up Cc1nn(C2CCN(C(=O)[C@@H](C)O)CC2)c(C)c1Nc1ncc(Cl)c(-c2cnn3ccccc23)n1 , I see its logD listed as 2.9

Looking up CCOc1nn(C2CCN(C(C)=O)CC2)cc1Nc1ncc(Cl)c(-c2cnn3ccccc23)n1 , I see its logD listed as 3.5

Looking up Cc1nn(C2CCN(C(=O)CN)CC2)c(C)c1Nc1ncc(Cl)c(-c2cnn3ccccc23)n1 , I see its logD listed as 1.3

Looking up Cc1nn(C2CCN(CCO)CC2)c(C)c1Nc1ncc(Cl)c(-c2cnn3ccccc23)n1 , I see its logD listed as 2.5

Looking up Cc1nn(C2CCN(C(=O)CO)CC2)c(C)c1Nc1ncc(Cl)c(-c2cnn3ccccc23)n1 , I see its logD listed as 2.6

Looking up CC(=O)N1CCC(n2cc(Nc3ncc(Cl)c(-c4cnc5ccccn45)n3)c(C)n2)CC1 , I see its logD listed as 2.8

Looking up CNCC(=O)N1CCC(n2nc(C)c(Nc3ncc(Cl)c(-c4cnn5ccccc45)n3)c2C)CC1 , I see its logD listed as 1.4

* * *

assay: Thermodynamic solubility of the compound in aqueous phosphate buffer at pH 7.4 at 25 degC after 24 hrs by LC-UV method; type: physicochemical; details: read-out: Therm_solubility
QUANTITY_MEASURED: solubility thermodynamic at 24 h (µM)
# value in µM; strip the unit string

Looking up Cc1nn(C2CCN(C(=O)[C@H](C)N)CC2)c(C)c1Nc1ncc(Cl)c(-c2cnn3ccccc23)n1 , I see its solubility thermodynamic at 24 h listed as 670

Looking up CNC(=O)CN1CCC(n2nc(C)c(Nc3ncc(Cl)c(-c4cnn5ccccc45)n3)c2C)CC1 , I see its solubility thermodynamic at 24 h listed as 15

Looking up Cc1nn(C2CCN(CC(=O)N(C)C)CC2)c(C)c1Nc1ncc(Cl)c(-c2cnn3ccccc23)n1 , I see its solubility thermodynamic at 24 h listed as 510

Looking up COc1cc(N2CCN(C(C)=O)CC2)ccc1Nc1ncc(Cl)c(-c2cnn3ccccc23)n1 , I see its solubility thermodynamic at 24 h listed as 1

Looking up Cc1nn(C2CCNCC2)c(C)c1Nc1ncc(Cl)c(-c2cnn3ccccc23)n1 , I see its solubility thermodynamic at 24 h listed as 91

Looking up Cc1nn(C2CCN(C(=O)[C@@H](C)N)CC2)c(C)c1Nc1ncc(Cl)c(-c2cnn3ccccc23)n1 , I see its solubility thermodynamic at 24 h listed as 620

Looking up CC(=O)N1CCC(n2ncc(Nc3ncc(Cl)c(-c4cnn5ccccc45)n3)c2C)CC1 , I see its solubility thermodynamic at 24 h listed as 9

Looking up Cc1nn(C2CCN(C(=O)[C@H](C)O)CC2)c(C)c1Nc1ncc(Cl)c(-c2cnn3ccccc23)n1 , I see its solubility thermodynamic at 24 h listed as 17

Looking up Cc1nn(C2CCN(CCO)CC2)c(C)c1Nc1ncc(Cl)c(-c2cnn3ccccc23)n1 , I see its solubility thermodynamic at 24 h listed as 37

* * *

test: Intrinsic clearance in human hepatocytes assessed per 10^6 cells; assay type: ADME, cell-based, Hepatocyte; conditions: read-out: CLH
QUANTITY_MEASURED: hepatocyte CLint

Looking up Cc1nn(C2CCN(C(=O)[C@@H](C)O)CC2)c(C)c1Nc1ncc(Cl)c(-c2cnn3ccccc23)n1 , I see its hepatocyte CLint listed as < 3 µL/min/1e6 cells

Looking up CC(=O)N1CCC(n2ncc(Nc3ncc(Cl)c(-c4cnn5ccccc45)n3)c2C)CC1 , I see its hepatocyte CLint listed as < 3 µL/min/1e6 cells

Looking up CC(=O)N1CCC(n2nc(C)c(Nc3ncc(Cl)c(-c4cnn5ccccc45)n3)c2C)CC1 , I see its hepatocyte CLint listed as 8.9 µL/min/1e6 cells

Looking up Cc1nn(C2CCN(C(=O)CO)CC2)c(C)c1Nc1ncc(Cl)c(-c2cnn3ccccc23)n1 , I see its hepatocyte CLint listed as < 3 µL/min/1e6 cells

* * *

experiment: Fraction unbound in rat plasma by equilibrium dialysis; format: ADME, cell-free
Outcome: fulfilled for fraction unbound of at least 0.09; not fulfilled for anything lower.

Query: Answer whether fraction unbound of CC(=O)N1CCC(n2ncc(Nc3ncc(Cl)c(-c4cnn5ccccc45)n3)c2C)CC1 is greater than or equal to 0.09.
Reply: not fulfilled

Query: Answer whether fraction unbound of CC(=O)N1CCC(n2cc(Nc3ncc(Cl)c(-c4cnn5ccccc45)n3)c(C)n2)CC1 is greater than or equal to 0.09.
Reply: not fulfilled

Query: Answer whether fraction unbound of CC(=O)N1CCC(n2nc(C)c(Nc3ncc(Cl)c(-c4cnn5ccccc45)n3)c2C)CC1 is greater than or equal to 0.09.
Reply: not fulfilled

Query: Answer whether fraction unbound of Cc1nn(C2CCN(C(=O)[C@@H](C)O)CC2)c(C)c1Nc1ncc(Cl)c(-c2cnn3ccccc23)n1 is greater than or equal to 0.09.
Reply: fulfilled

* * *

experiment: Oral bioavailability in Beagle dog at 10 umol/kg; assay type: ADME, organism-based, Canis lupus familiaris; conditions: in vivo
Exercise: state measured bioavailability for each of the compounds provided.
# value in %; strip the unit string

Looking up CC(=O)N1CCC(n2ncc(Nc3ncc(Cl)c(-c4cnn5ccccc45)n3)c2C)CC1 , I see its bioavailability listed as 63

Looking up Cc1nn(C2CCN(C(=O)[C@@H](C)O)CC2)c(C)c1Nc1ncc(Cl)c(-c2cnn3ccccc23)n1 , I see its bioavailability listed as 38

Looking up Cc1nn(C2CCN(C(=O)CO)CC2)c(C)c1Nc1ncc(Cl)c(-c2cnn3ccccc23)n1 , I see its bioavailability listed as 6

* * *

Exercise: state measured Vd for each of the compounds provided.
assay: Volume of distribution at steady state in Han Wistar rat plasma at 2 or 4 umol/kg, iv or 10 umol/kg, po; type: ADME, organism-based; conditions: read-out: Vdss
# value in L/kg; strip the unit string

Looking up CC(=O)N1CCC(n2nc(C)c(Nc3ncc(Cl)c(-c4cnn5ccccc45)n3)c2C)CC1 , I see its Vd listed as 1.3

Looking up Cc1nn(C2CCN(C(=O)[C@@H](C)O)CC2)c(C)c1Nc1ncc(Cl)c(-c2cnn3ccccc23)n1 , I see its Vd listed as 0.8

Looking up Cc1nn(C2CCN(C(=O)CO)CC2)c(C)c1Nc1ncc(Cl)c(-c2cnn3ccccc23)n1 , I see its Vd listed as 1.2

Looking up CC(=O)N1CCC(n2ncc(Nc3ncc(Cl)c(-c4cnn5ccccc45)n3)c2C)CC1 , I see its Vd listed as 0.4

Data provenance: ChEMBL document CHEMBL3822394
